biological target: recombinant human b-Raf residues 416-end containing a V600E mutation (Homo sapiens, UniProt P15056, V600E); construct: recombinant human b-Raf residues 416-end containing a V600E mutation; test: b-Raf V600E mutant HTRF assay with 6H-MEK as substrate (dose response); conditions: 6H-MEK substrate
Sequence (P15056 416-766 V600E): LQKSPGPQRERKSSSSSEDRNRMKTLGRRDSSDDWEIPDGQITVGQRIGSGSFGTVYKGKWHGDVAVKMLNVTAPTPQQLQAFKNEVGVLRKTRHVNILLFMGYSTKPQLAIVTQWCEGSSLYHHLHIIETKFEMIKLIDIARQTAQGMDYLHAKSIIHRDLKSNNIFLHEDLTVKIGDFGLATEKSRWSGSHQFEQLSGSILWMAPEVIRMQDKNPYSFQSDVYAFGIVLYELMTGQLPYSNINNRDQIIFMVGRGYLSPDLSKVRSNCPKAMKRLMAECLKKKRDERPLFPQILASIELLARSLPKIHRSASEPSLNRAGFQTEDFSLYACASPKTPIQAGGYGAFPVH
Observable: IC50

- CNC(=O)c1ccc(C)c(-c2cc3cnc(NC4CCOCC4)nc3n(C)c2=O)c1 [Compound 8]: ~10 nM

---

molecular target: recombinant human b-Raf residues 416-end (wild type) (Homo sapiens); construct: recombinant human b-Raf residues 416-end with N-terminal GST-tag; experiment: b-Raf wild-type HTRF assay with 6H-MEK as substrate (dose response); conditions: 6H-MEK substrate
Sequence (P15056 416-766 limits assumed): as the sequence (P15056 416-766 V600E) above, with E185V counted along it
pIC50: −log10 of the molar value.
Observable: pIC50

- CNC(=O)c1ccc(C)c(-c2cc3cnc(NC4CCOCC4)nc3n(C)c2=O)c1 [Compound 8]: ~7.70
